The measurements presented in this section are drawn from patent EP4721754A1.

Please respond with reported EC50, CRE-luciferase reporter in calcitonin receptor/CRE-luc CHO cells, 24 h for every item in the list.
Target: T1, calcitonin receptor (hCTR) (human, UniProt P30988 25-474)
T1 sequence (looked up): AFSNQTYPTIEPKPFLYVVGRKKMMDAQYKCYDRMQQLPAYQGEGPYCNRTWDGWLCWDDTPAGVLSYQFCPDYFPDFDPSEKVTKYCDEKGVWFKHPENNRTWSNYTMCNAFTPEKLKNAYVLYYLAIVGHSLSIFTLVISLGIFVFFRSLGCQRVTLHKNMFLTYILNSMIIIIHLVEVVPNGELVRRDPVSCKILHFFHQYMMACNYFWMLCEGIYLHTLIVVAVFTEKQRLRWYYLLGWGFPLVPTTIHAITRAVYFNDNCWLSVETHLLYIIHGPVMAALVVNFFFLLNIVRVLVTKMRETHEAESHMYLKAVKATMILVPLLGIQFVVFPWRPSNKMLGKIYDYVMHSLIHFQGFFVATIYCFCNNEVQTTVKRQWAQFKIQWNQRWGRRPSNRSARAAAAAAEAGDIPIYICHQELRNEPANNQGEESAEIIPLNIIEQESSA
Experiment: cell-based or functional assay
Numbered stars: 1 amine (or outer) side, 2 acyl side, 3 side chain; on linkers, the order of the positions; unused ones are H or OH. Square brackets hold non-standard residues; d marks the D form. Primed or numbered codes have the meaning given here. * marks the point of attachment. C20 diacid = O=C(O)CCCCCCCCCCCCCCCCCCC(=O)*; C18 diacid = O=C(O)CCCCCCCCCCCCCCCCC(=O)*; γGlu = O=C(O)[C@H](CCC(=O)[*:2])N[*:1]; Inp′ = not defined here; AEEA = NCCOCCOCC(=O)O
Give just the numeric value; nM need not be written.

Req: What EC50, CRE-luciferase reporter in calcitonin receptor/CRE-luc CHO cells, 24 h value was documented for this binder, {C20 diacid-γGlu}-ASQLSTAVLGRLSDELHRLQDYPRTDVGSGSP-NH2 (ends and bridges not checked) [M6] ?
Resp: 0.028

Req: Now consider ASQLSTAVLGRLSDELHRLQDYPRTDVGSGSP (not fully specified; N terminus: C20 diacid + βAsp+2 AEEAs) [M25] .
Resp: 0.138

Req: Now consider {C18 diacid-Inp′}-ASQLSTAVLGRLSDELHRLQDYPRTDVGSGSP-NH2 [M17] .
Resp: 0.259

Req: Now consider {C18 diacid}-DASQLSTAVLGRLSDELHRLQDYPRTDVGSGSP-NH2 [M13] .
Resp: 0.085

Req: Now consider {C18 diacid}-D[AEEA][AEEA]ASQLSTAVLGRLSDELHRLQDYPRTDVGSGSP-NH2 [M26] .
Resp: 0.024
